molecular target: Tyrosyl-tRNA synthetase, putative (Trypanosoma cruzi (strain CL Brener)); experiment: Trypanosoma cruzi tyrosyl tRNA synthetase (TcYRS) _High Tyrosine SOP; type: functional; set-up: scale not given: in the data most compounds retested in dose-response had high values; conditions: 30 µM
Measured Percent Effect, listed per entry.
The reply should contain only the number, in %.

INSERT INTO results (compound, readout, assay_result) VALUES
  ('CC(=O)NCC(=O)N1Cc2nccn2CC(Cn2cccn2)C1 (stereo not drawn)', 'Percent Effect', 5.41),
  ('CC(C)c1nnc2n1CCN(C(=O)c1cccc(C(F)(F)F)c1)C2', 'Percent Effect', 6.84);

Sample CC(C)C(=O)NCC(=O)N(C)C1CCCN(CCc2ccccc2)C1 (stereo not drawn) , system: Tyrosyl-tRNA synthetase, putative (Trypanosoma cruzi (strain CL Brener)). Its Percent Effect is 3.7

Sample "NS(=O)(=O)CCNC(=O)C1(c2ccc(Br)cc2)CC1" , system: Tyrosyl-tRNA synthetase, putative (Trypanosoma cruzi (strain CL Brener)). Its Percent Effect is 2.15

Sample COCCN1C(=O)CC(N2CCN(c3ccc(F)cc3)CC2)C1=O (stereo not drawn) , system: Tyrosyl-tRNA synthetase, putative (Trypanosoma cruzi (strain CL Brener)). Its Percent Effect is -3.19

Sample CCc1nc(C2CCCN2C(=O)c2ccc3c(c2)nnn3CC)no1 (stereo not drawn) , system: Tyrosyl-tRNA synthetase, putative (Trypanosoma cruzi (strain CL Brener)). Its Percent Effect is 2.63
